# System: HEK-293T
# ASSAY INFO: Incucyte cell viability with HEK293T; also: unitless GR value; below 1 slowed growth and below 0 cell loss
# Type: toxicity, cell-based
# TEST SETTINGS: human, 24 h, 10 µM, compound concentration 10 uM, replicate number 1, timepoint 24 hours
I'd appreciate it if you marked entries condition met when Growth Rate is lower than 0.7 and condition not met when it is not.

A selection of reference data follows.
Input line: For O=C(O)c1ccccc1S(=O)(=O)NCCCCN1C(=O)c2cccc3cccc(c23)C1=O , is the recorded Growth Rate below the cut-off of 0.7?
Output line: condition not met

Input line: # check: Growth Rate < 0.7 for COc1cc2nc(N3CCN(C(=O)c4ccco4)CC3)nc(N)c2cc1OC.Cl [PRAZOSIN HYDROCHLORIDE]
Output line: condition not met

Input line: Please check: Growth Rate for O=C(Nc1cc(C(F)(F)F)ccc1N1CCN(Cc2ccccn2)CC1)c1ccc(-c2ccncc2)o1 , strictly under 0.7 or not?
Output line: condition met

Input line: Strictly below 0.7 in Growth Rate? N#Cc1c(N)nc(SCc2csc(-c3ccc(Cl)cc3)n2)c(C#N)c1-c1ccc(OCCO)cc1 [CAPADENOSON]
Output line: condition met

Input line: # strict comparison: is reported Growth Rate < 0.7? input = C[C@H]1CN(C[C@H](Cc2ccccc2)C(=O)NCC(=O)O)CC[C@@]1(C)c1cccc(O)c1 [ALVIMOPAN]
Output line: condition not met

***
Input line: Identify whether the compound CC(C)c1noc(N2CCC(COc3ccc(-c4ccc(S(C)(=O)=O)cc4)nc3)CC2)n1 [GSK-1292263] records Growth Rate below 0.7.
Output line: condition met

Input line: Record O=C(O)CCc1ccc(NCc2cccc(Oc3ccccc3)c2)cc1 [GW9508] : is its Growth Rate strictly below 0.7?
Output line: condition not met

Input line: Determine if C[C@]1(O)CC[C@H]2[C@@H]3CCC4=CC(=O)CCC4=C3C=C[C@@]21C [METRIBOLONE] shows Growth Rate strictly lower than 0.7.
Output line: condition not met

====

The following compounds are listed with their measured Growth Rate values.
# Test system: HEK-293T
# ASSAY INFO: Incucyte cell viability with HEK293T; also: unitless GR value; below 1 slowed growth and below 0 cell loss
# Assay type: toxicity, cell-based
# TEST SETTINGS: human, 18 h, 10 µM, compound concentration 10 uM, replicate number 2, timepoint 18 hours
Keep the answer to the number alone.

Example entries and their recorded answers appear below.
Input line: What value of Growth Rate has been recorded for this entry: CCCCOCCOc1nc(-c2ccc(C(=O)O)c(F)c2)sc1C
Output line: 0.82

Input line: Quick one: Growth Rate for N#Cc1c(N)nc(SCc2csc(-c3ccc(Cl)cc3)n2)c(C#N)c1-c1ccc(OCCO)cc1 [CAPADENOSON] ?
Output line: 0.44

Input line: Value lookup for Growth Rate; key = CN1CCC(c2c[nH]c3ccc(O)cc23)CC1
Output line: 0.89

Input line: Name the reported Growth Rate value associated with the compound O=C1NC(Nc2ccccc2)=N/C1=C\c1ccc2c(c1)OCO2
Output line: 0.58

Input line: So what does the record say about Growth Rate for CNC(=O)[C@H]1O[C@@H](n2cnc3c(NCc4cccc(I)c4)ncnc32)[C@H](O)[C@@H]1O [IB-MECA] ?
Output line: 0.98

***
Input line: Requested field: Growth Rate. Item: CC(COc1ccccc1)N(CCCl)Cc1ccccc1.Cl (stereo not drawn) [PHENOXYBENZAMINE HYDROCHLORIDE]
Output line: 1

Input line: Which value of Growth Rate has been reported for CN(c1ncccc1CNc1ccnc(-c2cc3cc(Cl)ccc3[nH]2)n1)S(C)(=O)=O in the records?
Output line: -0.25

Input line: Query (compound): NC(=O)c1cc2c(-c3ccc(C(=O)NCc4ccnc(Cl)c4)s3)cccc2s1 ; field requested: Growth Rate
Output line: -0.06

====

Items are presented alongside their recorded Growth Rate.
# System: U2OS
# ASSAY INFO: Incucyte cell viability with U2OS; also: unitless GR value; below 1 slowed growth and below 0 cell loss
# Assay type: toxicity, cell-based
# TEST SETTINGS: human, 18 h, 10 µM, compound concentration 10 uM, replicate number 1, timepoint 18 hours
Lab note: jot the number down without any unit.

Input line: Return Growth Rate measured with U2OS given this compound: CN(C(=O)/C=C/c1ccoc1)[C@@H]1CC[C@@]2(O)[C@H]3Cc4ccc(O)c5c4[C@@]2(CCN3CC2CC2)[C@H]1O5
Output line: 0.68

Input line: # returns recorded Growth Rate (system: U2OS) for CCc1cc2cc(NS(=O)(=O)c3ccc(C#N)cc3)ccc2n(CC)c1=O
Output line: 0.95

Input line: Record lookup: for U2OS, what Growth Rate belongs to Cc1ccc(/C(=C\CN2CCCC2)c2ccccn2)cc1 ?
Output line: 0.76

***
Input line: Field: Growth Rate (U2OS). Entry: Cc1cc(Nc2ncc(Cl)c(Nc3ccccc3S(=O)(=O)C(C)C)n2)c(OC(C)C)cc1C1CCNCC1
Output line: -0.66

====

# System: U2OS
# ASSAY INFO: Incucyte cell viability with U2OS; also: unitless GR value; below 1 slowed growth and below 0 cell loss
# Assay type: toxicity, cell-based
# TEST SETTINGS: human, 18 h, 10 µM, compound concentration 10 uM, replicate number 1, timepoint 18 hours
Binary call on Growth Rate: MET from 0.7 upward, NOT MET beneath that.

Input line: Determine whether measured Growth Rate meets or exceeds 0.7 for C[C@@H](c1ccc(F)cc1)n1nnc2cnc3ccc(-c4ccc5ocnc5c4)cc3c21
Output line: MET

Input line: Check the entry CO[C@H]1CC[C@@H](C(=O)c2ccc3nc4c(cc3c2)CCCO4)CC1 : does Growth Rate equal or exceed 0.7?
Output line: NOT MET

Would you kindly look at the next entry?
Input line: Identify whether the reported Growth Rate of the following molecule is 0.7 or greater: Cc1cc(C)cc(C(=O)NOCCCCCC(=O)NO)c1
Output line: NOT MET

====

// values below are reported Growth Rate
# Tested on: Fibroblast
# ASSAY INFO: Incucyte cell viability with human fibroblast; also: unitless GR value; below 1 slowed growth and below 0 cell loss
# Assay type: toxicity, cell-based
# TEST SETTINGS: 18 h, 10 µM, compound concentration 10 uM, replicate number 1, timepoint 18 hours
No unit in the answer, only the number.

Input line: // lookup Growth Rate for O=C(NCC(=O)N1CC[C@H](N[C@H]2CC[C@@](O)(c3ccc(-c4ncccn4)cn3)CC2)C1)c1cccc(C(F)(F)F)c1
Output line: 0.3

Continuing:
Input line: Sample O=c1ccc2ccc(OCCCCN3CCN(c4cccc5sccc45)CC3)cc2[nH]1 — what was its Growth Rate?
Output line: 0.08

Input line: Entry CN(C(=O)c1ccccc1)c1cc(N(C)c2ccc3c(c2)CCc2ccc(C(=O)NCCN4CCOCC4)cc2C3=O)ccc1F has what Growth Rate?
Output line: -0.66

Input line: Query (molecule): O=C(Nc1cc(C(F)(F)F)ccc1N1CCCCC1)c1ccncc1 ; field requested: Growth Rate
Output line: 0.65

Input line: Look at this molecule and give its reported Growth Rate. CO/C1=C/C(C)=C\[C@@H](C)[C@@H](O)[C@@H](C)C/C(C)=C\C=C/[C@H](OC)C([C@@H](C)[C@@H](O)[C@H](C)[C@@]2(O)C[C@@H](O)[C@H](C)[C@@H](C(C)C)O2)OC1=O (some centres not stated)
Output line: -0.72

Input line: Requested read-out: Growth Rate. Entry: CC(C)n1cnc2c(Nc3cccc(Cl)c3)nc(N[C@H]3CCCC[C@@H]3N)nc21
Output line: 0.33

Input line: Using the record for CC(C)C[C@H](CO)Nc1nc(S[C@@H](C)c2ccccc2)nc2nc(N)sc12 , report its Growth Rate.
Output line: 0.83

====

# Tested on: U2OS
# ASSAY INFO: Incucyte cell viability with U2OS; also: unitless GR value; below 1 slowed growth and below 0 cell loss
# Format: toxicity, cell-based
# TEST SETTINGS: human, 0 h, 10 µM, compound concentration 10 uM, replicate number 1, timepoint 0 hours
So basically: is Growth Rate under -0.09? Then T. Not under? Then F.

Input line: State whether -0.09 exceeds Growth Rate recorded for Cc1cc(C)cc(C(=O)NOCCCCCC(=O)NO)c1 .
Output line: F

Input line: Bench note: check whether CCN1C(=CC(C)=O)Sc2ccc(OC)cc21 shows Growth Rate below -0.09
Output line: F

Input line: Please indicate whether the reported Growth Rate of COc1ccccc1N1CCN(CCCCNC(=O)c2ccc3ccccc3c2)CC1.Cl is strictly below -0.09.
Output line: F

Input line: Quick check: does CN(C)C(=O)Cn1cc(-c2ccc(-c3nnc4ccccn34)cc2)cn1 have Growth Rate under -0.09?
Output line: T

Input line: # check: Growth Rate < -0.09 for Cc1ccccc1N1CCN(S(=O)(=O)C[C@]23CC[C@H](C[C@@H]2NC(=O)[C@@H](N)CCS(C)(=O)=O)C3(C)C)CC1.Cl
Output line: T

Continuing:
Input line: Is Growth Rate strictly under -0.09 for the entry CC(C)[C@H](C(=O)Nc1ccc(C(=O)NO)cc1)c1ccccc1 [AR-42] ?
Output line: T

Input line: is_below(Growth Rate, -0.09) for CC(C)CC(=O)Nc1cncc(-c2ccc3[nH]nc(-c4nc5c(-c6cccc(F)c6)cncc5[nH]4)c3c2)c1 [LORECIVIVINT] ?
Output line: T

Input line: In plain terms, does O=C(O)COc1cccc(-c2ocnc2-c2nc(-c3ccccc3)c(-c3ccccc3)o2)c1 come in under -0.09 for Growth Rate?
Output line: T

Values compiled from ChEMBL document CHEMBL5058564.
